Tested on: HCT-116 (colorectal cancer)
Test: Tumor cytotoxicity assay (MTT), HCT-116
Assay type: cell-based
Conditions: Homo sapiens, HCT-116, 72 hours
measured-property: CC50

Examples with answers:
molecule: NC1CCCN(CCNC(=O)c2ccc(C#Cc3cc(NC(=O)NCCc4cccnc4)ccc3-c3ccncc3)cc2)C1 (stereo not shown)
CC50: 0.03 to 0.1 µM

molecule: O=C(NCc1ccn2ccnc2c1)Nc1ccc(-c2ccncc2)c(C#Cc2ccc(F)cc2)c1
CC50: < 0.03 µM

molecule: O=C(NCCc1cccnc1)Nc1ccc(-c2ccncc2)c(C#Cc2ccc(C(=O)NCCN3CCNCC3)cc2)c1
CC50: < 0.03 µM

molecule: O=C(NCCc1cccnc1)Nc1ccc(-c2ccncc2)c(C#Cc2ccc(C(=O)NCCN3CCC4(CCNC4)CC3)cc2)c1
CC50: 0.03 to 0.1 µM

molecule: Cn1ccc(CS(=O)(=O)c2ccc(NC(=O)NCc3ccn4ccnc4c3)cc2C#Cc2ccc(F)cc2)n1
CC50: < 0.03 µM

molecule: Cc1nc2cc(-c3ccc(NC(=O)NCCc4cccnc4)cc3C#Cc3ccc(F)cc3)ccc2c(=O)[nH]1
CC50: < 0.03 µM

molecule: O=C(NCCc1cccnc1)Nc1ccc(-c2ccncc2)c(C#Cc2ccc(F)cc2)c1
CC50: 0.03 to 0.1 µM

molecule: O=C(NCCc1cccnc1)Nc1ccc(-c2ccncc2)c(C#Cc2ccc(C(=O)NCCN3CCCCC3)cc2)c1
CC50: < 0.03 µM

molecule: Cc1nc2cc(-c3ccc(NC(=O)NCc4ccn5ccnc5c4)cc3C#Cc3ccc(F)cc3)ccc2c(=O)n1CCN
CC50: < 0.03 µM

molecule: Cc1nc2cc(-c3ccc(NC(=O)NCCc4cccnc4)cc3C#Cc3ccc(F)cc3)ccc2c(=O)n1CCN
CC50: < 0.03 µM

Provide CC50 values for the following items, in order.
1. O=C(NCCc1cccnc1)Nc1ccc(-c2ccncc2)c(C#Cc2ccc(C(=O)NC3CCNCC3)cc2)c1
2. NC1CCN(C(=O)c2ccc(C#Cc3cc(NC(=O)NCCc4cccnc4)ccc3-c3ccncc3)cc2)CC1
3. CC(C(=O)NC1CCCCC1)c1ccc(NC(=O)NCCc2cccnc2)cc1C#Cc1ccc(C(=O)NCCN2CCCCC2)cc1 (stereo not shown)
4. O=C(NCCc1cccnc1)Nc1ccc(-c2ccc(N3CCNCC3)cc2)c(C#Cc2ccc(F)cc2)c1

Reply |
1: 0.03 to 0.1 µM; 2: 0.03 to 0.1 µM; 3: 0.03 to 0.1 µM; 4: < 0.03 µM

// for each molecule in input: emit CC50
1. O=C(NCc1cc2cnccc2[nH]1)Nc1ccc(-c2ccncc2)c(C#Cc2ccc(F)cc2)c1
2. O=C(NCc1ccn2ccnc2c1)Nc1ccc(-c2ccncc2)c(C#Cc2ccc(C3CCNCC3)cc2)c1

Reply |
1. 0.03 to 0.1 µM
2. < 0.03 µM
